# Method: in vitro
# Condition Notes: human, hela cells, % viability
Property Label: viability at 28.5 h, 10 µM

Sample answers from the record:
* Cc1cccc2[nH]c(-c3ccccc3)nc12 | 92.9%
* O=C(CCn1cnc2ccccc2c1=O)Nc1ccc(S(=O)(=O)N2CCCC2)cc1 | 93%
* Fc1ccccc1CN1CCN(Cc2ccccn2)CC1 [CBK265194G] | 100%

Lab note: CS(=O)(=O)c1ccc(-c2ccc3c(c2)C(=O)NC(C2CCN(C(=O)OCc4ccccc4)CC2)O3)cc1 (centres unmarked) gave viability at 28.5 h, 10 µM of 98.1%

Short answer for `CSc1ccc(-c2nccnc2OCCN(C(C)C)C(C)C)cc1` : viability at 28.5 h, 10 µM was 107%
